test: protein stability index of a GFP-peptide fusion (GPS, HEK-293T) (PSI 1-6); higher = more stable; conditions: treatment: MLN4924 1 uM, 8 h; c terminus: a fixed tail appended;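 also: 24-mer peptide tiles fused after GFP, lentivirally expressed, FACS-sorted into six equal bins by GFP/DsRed ratio, decoded by Illumina sequencing, PSI is the read-weighted mean bin number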
VALUE TYPE: protein stability index

                               sequence  value_observed
 0     GSEKVTMQNLNDRLASYLDKVRAL [KRT16]            2.89
 1      GAFLRTCLLSSNSRSLLTGGYNLA [TLE6]            2.79
 2    SLSHTELEAAEVILEHAHRGEQTT [FCHSD1]            5.28
 3      EERQAAQNECQVLKLLNHPNVIEY [NEK8]            4.29
 4     ALDEIKLLKCVRESDPSDPNKDMV [SRPK2]            4.54
 5     LEAHCVEFLTKHLRADNAFMLLTQ [BTBD1]            2.81
 6      SGHKLYIFLFQDILVLTRPVTRNE [NET1]            2.41
 7     DSQDLVASFRVTTGTSNTTAIKSI [RBBP5]            3.59
 8    TNNNIKQRLIKKVQEAVLDKWVND [GOLPH3]            2.36
 9    PVCRKTSRYRSLRPNRQLGSMVEI [TRIM39]            2.83
10    EFPESRKPISTKSQFLKHQQTHNI [ZNF649]            3.57
11       AASSAKMGLVETKLAIIPGGGGTQ [AUH]            4.61
12    TTTVTAVTAEVDLFGDAFAASPGE [SNAP91]            4.59
13      VSTQRSQDHFHVFVGDLSPEITTE [TIA1]            3.92
14     QGEGPEAGDAEVCPTPARLATTEK [NOP53]            5.44
15    MLENYSNLVSVGYQAGKPDALTKL [ZNF649]            2.83
16  SFPLEWAPQNLTRWTFEKACHPFL [TOR1AIP2]            2.31
17      QFSVVSVVAYLALAALSATISFRI [RTN1]             3.2
18      YLLHGLECVVAMHQAQLISKIPHI [EIF5]               3
19     VEWAKYIPAFCELPLDDQVALLRA [HNF4A]            2.44
20      YFRDLPEPLMTNKLSETFLQIYQY [DLC1]            2.26
21    ALVETSYVKVLHHMVKISGGPHIS [MAGEA3]            2.82
22      DSSHDSARASEGSDSGSDKSLEGG [SMG5]            5.51
23  LFRCIQNMPETLPNNSCYSAGIAK [TNFSF13B]            2.68
24     KKRKVDGLSTEAEQPFIPVEVLVD [PRAME]            4.04
25     FSAYIDSMAAVPTLELCHDELFAD [CEBPD]             3.1
26    KDAYVQKLVKVCNGHDCWSLISLS [TENT5D]            2.14

====

Overview of reported protein stability index across a group of sequences:
test: protein stability index of a GFP-peptide fusion (GPS, HEK-293T) (PSI 1-6); higher = more stable; settings: treatment: DMSO; c terminus: a fixed tail appended
VALUE TYPE: protein stability index

>>> df
                             sequence  value_observed
0   PPKIRLKPHRLGDSEHEPVYRAEL [PWWP2B]            4.02
1   SDPQTVAGAFGYFQQDTKGLVDFR [LPCAT4]            3.68
2    TFPHSISAKNTSHPGSGTKVQFNL [SASS6]            2.89
3   IVIADVKLVADFQRYILYWRKRFT [ZNF277]            2.48
4    CQVFPERLAQGNPQQGFFSSFFTC [ATP23]            2.07
5     RSEQSVKLRRQVIQVVLNGMESYQ [ZER1]            2.41
6  DCLLCFPETLPESSLFSVEANSSN [C8orf76]            3.58

====

assay: protein stability index of a GFP-peptide fusion (GPS, HEK-293T) (PSI 1-6); higher = more stable; details: treatment: MLN4924 1 uM, 8 h; c terminus: a fixed tail appended
# if value of protein stability index reaches 3, tag 1; if it stays below, tag 0

>>> df
                               sequence  assigned_class
 0     VSNDSHTWVTVKNGSGDMIFEGNS [CPXM2]               1
 1   LLFDMTTHPVTNTTEKQRLVKKLQ [GOLPH3L]               0
 2     YVHWPYCEKRCSYCNFNKYIPRRL [RSAD1]               0
 3      EEWGQLDPTQRILYRDVMLETFGH [ZNF8]               1
 4     PFSFGTLSSWELEAWYEDLQEVLS [DDIT3]               0
 5     LFYDDYYEDGEVEEEADSCFGDDE [CDC34]               1
 6     APFLSQADDPDDGPVPGTPGLPGS [SPNS1]               1
 7    AMYISQEEWGHQDPSKRALSRDTV [ZNF263]               1
 8     WKVRAEKEACQREKELPAAVHPFH [ZBED2]               1
 9     LLFMTSRVRFGQQKRYQDWFQRQY [INTS3]               0
10  LIESEAPPKASEQETAKEEDGSVE [C18orf25]               1
11  RRDPSIPIYGLRQSILLNTRLQDC [C22orf31]               0
12     AARAVRANDINYQDQIPRTLEEFV [FEM1B]               1

====

assay: protein stability index of a GFP-peptide fusion (GPS, HEK-293T) (PSI 1-6); higher = more stable; conditions: treatment: MLN4924 1 uM, 8 h; c terminus: a fixed tail appended
protein stability index vs 3: at or above is Yes, below is No.

>>> print(df.to_string())
                              sequence  assigned_class
 0   EGAIAVHCKAGLGRTGTLIACYVM [CDC14A]              No
 1  RMQVLKRQVQSLMVHQRKLEAELL [SMARCE1]              No
 2    QIKDFKEKIQQDADSVITVGRGEV [ACBD3]             Yes
 3  SLRLCDMRAAALCDKHSKLFEEPE [PPP2R2C]             Yes
 4   QQDLERSLQDASRGDPAHAGLAEL [PBXIP1]             Yes
 5   RDPQAVKERALSAPWLSLFPPEGN [ZNF263]             Yes
 6   LLDLQPDFSSGGAAAAAAPAPPPP [SNAP91]             Yes
 7     LEKESDTPLQQVSIEEILEEQRVE [LSM1]             Yes
 8   QSMSEEEREKVTPLMVKGFRDAAE [SEPHS2]             Yes
 9     DSPSKEEVFRFVQSCARAVVPSYI [CPOX]              No
10    LKQLKHPNLVNLIEVFRRKRKMHL [CDKL4]              No
11  YFHINQTLREAHFHSLQHRGRPLT [FAM104A]             Yes
12     QPRIHLVRAAQLCSQHWGGMASFR [TBX6]              No
13    EHSWIKAIRRRNVRGEDSGRKPER [DAPK3]             Yes
14   LGRFSLTPAEGDTEEDDGFVDILE [CDC25B]             Yes
15   EALSVPLSLCVSSHLALPAQHHWE [CLPTM1]              No
16     TPFQSVPPTVSQTPVIAATPVPTI [BRD3]             Yes
17   RLIATKNPEEIRGGGLLKYSNLLV [TENT5C]              No
18  STDDFFFREDGAYEFNPDFLEEAH [N4BP2L1]             Yes
19   KHPRQTLEVINLLRKHRELCDVVL [KLHL20]              No
20   IRLTQYIDGQGRPRTSQSEETRVW [CAMK2B]             Yes
21     TKWVDYSNKYGFGYQLSDHTVGVL [PLK2]              No
22    GEAAGSSLIGHLQTLSPDMQGAYC [DUSP5]             Yes
23   AVVKPGNTKEKIAFFASHQCSNRI [FBXO34]             Yes
